Molecular target: 5-HT1B (h) (Homo sapiens, UniProt P28222)
Construct: host or cells: Chem-1 (RBL) cells
Sequence (P28222 whole entry): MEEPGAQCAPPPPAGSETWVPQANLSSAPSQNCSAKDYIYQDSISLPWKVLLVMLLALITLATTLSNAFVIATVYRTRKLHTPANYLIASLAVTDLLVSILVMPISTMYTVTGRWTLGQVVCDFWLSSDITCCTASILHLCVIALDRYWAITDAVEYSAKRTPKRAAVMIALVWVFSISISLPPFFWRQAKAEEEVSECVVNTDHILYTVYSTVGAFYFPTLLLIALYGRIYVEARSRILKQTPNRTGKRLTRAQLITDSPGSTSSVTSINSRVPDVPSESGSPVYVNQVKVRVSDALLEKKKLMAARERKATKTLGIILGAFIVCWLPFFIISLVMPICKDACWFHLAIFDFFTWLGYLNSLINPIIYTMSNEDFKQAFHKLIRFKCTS
Experiment: Competition assay to measure binding affinity at 5-HT1B receptor
Details: test ligand 10 μM; [3H]GR125743 1 nM
MEASURE NAME: HT1B, percent of control-specific binding (%)
Express your answer in %, writing the number without its unit.

Inquiry: Record request: HT1B, percent of control-specific binding value, item CC(Cc1ccc2c(c1)OCO2)N1CCC1 (centres unmarked)
Reply text: 17

Inquiry: HT1B, percent of control-specific binding for COc1ccc2[nH]cc(CCNC(C)=O)c2c1 [Melatonin, reference compound] ?
Reply text: 0

Inquiry: Which HT1B, percent of control-specific binding reading was recorded for the molecule CCCOc1c(OC)cc(CCN)cc1OC [proscaline, reference compound] ?
Reply text: −13

Inquiry: Need HT1B, percent of control-specific binding, item CC(Cc1ccc2c(c1)OCCO2)NCc1ccc2c(c1)OCO2 (centres unmarked)
Reply text: 0

Inquiry: For the molecule shown here, N#CC(Cc1ccc2c(c1)OCO2)NC1CCC1 (centres unmarked) , give the reported HT1B, percent of control-specific binding.
Reply text: 0

Inquiry: Need HT1B, percent of control-specific binding, item CC(Cc1ccc2c(c1)OCCO2)NC1CCC1 (centres unmarked)
Reply text: 0

Inquiry: Given the molecule CC(Cc1ccc2c(c1)OCCO2)NCc1ccc2c(c1)OCCO2 (centres unmarked) , what is its reported HT1B, percent of control-specific binding?
Reply text: 11

Inquiry: Name the recorded HT1B, percent of control-specific binding for CC(Cc1ccc2c(c1)OCCO2)NCc1cc2c(cc1Br)OCCO2 (centres unmarked) .
Reply text: 7

Inquiry: Would you mind telling me what HT1B, percent of control-specific binding value was observed for N[C@@H](Cc1c[nH]c2ccccc12)C(=O)O [tryptophan, reference compound] ?
Reply text: −22

Inquiry: Name the reported HT1B, percent of control-specific binding value associated with the molecule CC(Cc1ccc2c(c1)OCO2)N1CC(NC(=O)OC(C)(C)C)C1 (centres unmarked)
Reply text: 15

Inquiry: // query HT1B, percent of control-specific binding value for entry CC(Cc1ccc2c(c1)OCCO2)N1CC(NC(=O)OC(C)(C)C)C1 (centres unmarked)
Reply text: 27

Inquiry: Fill blank: measured HT1B, percent of control-specific binding of the molecule CON(C)C(C)Cc1ccc2c(c1)OCO2 (centres unmarked) is ____.
Reply text: 6

Inquiry: Item under review: CC(Cc1ccc2c(c1)OCO2)NCc1cc2c(cc1Br)OCO2 (centres unmarked) . Reported HT1B, percent of control-specific binding?
Reply text: 0

Inquiry: Suppose we examine the molecule COc1cc2c(cc1CCNCCO)OCO2 ; what HT1B, percent of control-specific binding value has been reported?
Reply text: 0

Inquiry: Quick check: HT1B, percent of control-specific binding of COc1cc2c(cc1CCN1CCCC1)OCO2 ?
Reply text: 7

Inquiry: Suppose we examine the molecule CNC(C)Cc1ccc2c(c1)OCO2 (centres unmarked) [MDMA, reference compound] ; what HT1B, percent of control-specific binding value has been reported?
Reply text: −21

Inquiry: Entry under review: O=c1n(CCCN2CCN(c3cccc(Cl)c3)CC2)nc2ccccn12 [Trazodone, reference compound] . Reported HT1B, percent of control-specific binding?
Reply text: 61

Inquiry: Which value of HT1B, percent of control-specific binding has been reported for COc1cc2c(cc1CC(=O)NCCO)OCO2 in the records?
Reply text: 0

Inquiry: Record request: HT1B, percent of control-specific binding value, item NCCc1c[nH]c2ccc(O)cc12 [serotonin, reference compound]
Reply text: 97

Inquiry: # input molecule: COc1cc(CCN)c(OC)cc1Br [2C-B, reference compound] ; wanted: its HT1B, percent of control-specific binding
Reply text: 77

Inquiry: Which HT1B, percent of control-specific binding is reported for this molecule? O=C(Cc1cc2c(cc1Br)OCO2)NCCO
Reply text: 0

Inquiry: Param item = COc1cc2c(cc1CNC(C)Cc1ccc3c(c1)OCCO3)OCO2 (centres unmarked) ; retrieve measured HT1B, percent of control-specific binding.
Reply text: 0

Inquiry: Given COc1cc2c(cc1CNC(C)Cc1ccc3c(c1)OCO3)OCO2 (centres unmarked) , state its recorded HT1B, percent of control-specific binding.
Reply text: 0

Inquiry: Query (molecule): COc1cc(CCN)cc(OC)c1OC ; field requested: HT1B, percent of control-specific binding
Reply text: 11

Inquiry: Any idea what its HT1B, percent of control-specific binding is? The molecule is N#Cc1ccc2[nH]cc(CCCCN3CCN(c4ccc5oc(C(N)=O)cc5c4)CC3)c2c1 [Vilazodone, reference compound]
Reply text: 67

Inquiry: Can you look up the measured HT1B, percent of control-specific binding of COc1cc2c(cc1CC(=O)N1CCCC1)OCO2 for me?
Reply text: 0

Inquiry: Returns the measured HT1B, percent of control-specific binding for the input molecule. Input: O=C(Cc1c(Br)ccc2c1OCO2)N1CCCC1
Reply text: 0

Inquiry: # lookup: HT1B, percent of control-specific binding of COc1cc(CC(C)N)c(OC)cc1Br (centres unmarked) [DOB, reference compound]
Reply text: 20

Inquiry: Would you mind telling me what HT1B, percent of control-specific binding value was observed for Brc1cc2c(cc1CCN1CCCC1)OCO2 ?
Reply text: 0

Inquiry: Reported HT1B, percent of control-specific binding, molecule CNCC[C@H](Oc1cccc2ccccc12)c1cccs1 [Duloxetine, reference compound] : ____
Reply text: 52

Inquiry: Query: HT1B, percent of control-specific binding; subject: FC1(F)Oc2ccc(CCN3CCCC3)cc2O1
Reply text: 0

Inquiry: Fill blank: measured HT1B, percent of control-specific binding of the molecule OCCNCCc1cc2c(cc1Br)OCO2 is ____.
Reply text: 0

Inquiry: I would be grateful if you could share the reported HT1B, percent of control-specific binding for CC(Cc1ccc2c(c1)OCCO2)NCc1cc2c(cc1Br)OCO2 (centres unmarked) .
Reply text: 1

Inquiry: Recorded HT1B, percent of control-specific binding for CC(Cc1ccc2c(c1)OCCO2)NCc1ccccc1 (centres unmarked) , please?
Reply text: 0

Inquiry: Fill in the blank: the reported HT1B, percent of control-specific binding of Cc1ccc(Sc2ccccc2N2CCNCC2)c(C)c1 [vortioxetine, reference compound] is ____.
Reply text: 101

Inquiry: Which HT1B, percent of control-specific binding value belongs to O=C(Cc1ccc2c(c1)OC(F)(F)O2)N1CCCC1 ?
Reply text: 0

Inquiry: Returns the measured HT1B, percent of control-specific binding for the input molecule. Input: CN(C)CCCN1c2ccccc2CCc2ccccc21 [Imipramine, reference compound]
Reply text: 36

Inquiry: I am curious: what HT1B, percent of control-specific binding value has been reported for c1cc(CCN2CCCC2)c2c(c1)OCO2 ?
Reply text: 3

Inquiry: Requested read-out: HT1B, percent of control-specific binding. Entry: COc1ccc2cccc(CCNC(C)=O)c2c1 [Agomelatine, reference compound]
Reply text: −9

Inquiry: Any idea what HT1B, percent of control-specific binding was measured for c1cc2c(cc1CCN1CCOCC1)OCO2 ?
Reply text: 0

Inquiry: Recorded HT1B, percent of control-specific binding for CC(C)(C)OC(=O)NC1CN(CCc2ccc3c(c2)OCO3)C1 , please?
Reply text: 1

These entries and their values trace back to patent US12428408B2.
